Test system: P. acnes
assay name: Agar dilution method, growth of P. acnes and MIC, single compounds
Assay type: cell-based, Propionibacterium acnes
Design: key: +++: confluent growth (comparable to control); ++: less confluent growth; +: marked reduction in growth to multiple tiny, single colonies; −: no growth present
study conditions: compound at 0.8 mg/mL
measured parameter: Growth Index Plate 3

| molecule | measured parameter | observed result |
| --- | --- | --- |
| COc1ccc(-c2ccc3cc(C(=O)O)ccc3c2)cc1C12CC3CC(CC(C3)C1)C2 [Adapalene] | Growth Index Plate 3 | ++ |
| O=C(OOC(=O)c1ccccc1)c1ccccc1 [Benzoyl Peroxide] | Growth Index Plate 3 | + |
| CCCCC/C=C\C/C=C\C/C=C\CCCCCCC(=O)O [DGLA, cis-8,11,14-eicosatrienoic acid] | Growth Index Plate 3 | + |
| Cc1ncc([N+](=O)[O-])n1CCO [Metronidazole] | Growth Index Plate 3 | +++ |

* * *

Tested on: P. acnes
assay name: Agar dilution method, growth of P. acnes and MIC, single compounds
Assay type: cell-based, Propionibacterium acnes
Set-up: key: +++: confluent growth (comparable to control); ++: less confluent growth; +: marked reduction in growth to multiple tiny, single colonies; −: no growth present
study conditions: compound at 0.6 mg/mL
measured parameter: Growth Index Plate 1

| compound | system | measured parameter | observed result |
| --- | --- | --- | --- |
| Cc1ncc([N+](=O)[O-])n1CCO [Metronidazole] | P. acnes | Growth Index Plate 1 | +++ |
| COc1ccc(-c2ccc3cc(C(=O)O)ccc3c2)cc1C12CC3CC(CC(C3)C1)C2 [Adapalene] | P. acnes | Growth Index Plate 1 | ++ |
| CCCCC/C=C\C/C=C\C/C=C\CCCCCCC(=O)O [DGLA, cis-8,11,14-eicosatrienoic acid] | P. acnes | Growth Index Plate 1 | ++ |
| O=C(OOC(=O)c1ccccc1)c1ccccc1 [Benzoyl Peroxide] | P. acnes | Growth Index Plate 1 | ++ |

* * *

Test system: P. acnes
assay name: Agar dilution method, growth of P. acnes and MIC, single compounds
Type: cell-based, Propionibacterium acnes
Parameters: key: +++: confluent growth (comparable to control); ++: less confluent growth; +: marked reduction in growth to multiple tiny, single colonies; −: no growth present
study conditions: compound at 0.4 mg/mL

| compound | Growth Index Plate 1 |
| --- | --- |
| COc1ccc(-c2ccc3cc(C(=O)O)ccc3c2)cc1C12CC3CC(CC(C3)C1)C2 | +++ |
| Cc1ncc([N+](=O)[O-])n1CCO | +++ |
| CCCCC/C=C\C/C=C\C/C=C\CCCCCCC(=O)O [DGLA, cis-8,11,14-eicosatrienoic acid] | +++ |
| O=C(OOC(=O)c1ccccc1)c1ccccc1 [Benzoyl Peroxide] | +++ |
